Assay: logP by HPLC (EEC Directive 79/831 Annex V. A8, gradient method)
Type: physicochemical
Settings: acetonitrile/0.1% aqueous phosphoric acid
Method: In Table 1, Me represents methyl. The logP values were determined in accordance with EEC Directive 79/831 Annex V. A8 by HPLC (gradient method, acetonitrile/0.1% aqueous phosphoric acid).
readout_name: chromatographic logP
The response must contain the number and no unit.

Solved entries:
| compound | chromatographic logP |
| --- | --- |
| CN(C)S(=O)(=O)n1c(Oc2ccc(Cl)c(Cl)c2)noc1=O [Example 22] | 3.37 |
| CCN(CC)S(=O)(=O)n1c(Oc2cccc(C(F)(F)F)c2)noc1=O [Example 48] | 3.68 |
| CCN(CC)S(=O)(=O)n1c(Oc2ccccc2OC)noc1=O [Example 46] | 3.05 |
| CCN(CC)S(=O)(=O)n1c(Oc2ccc(C)cc2C)noc1=O [Example 31] | 3.72 |

Data point: Cc1ccc(S(=O)(=O)n2c(Oc3ccc(C)cc3C)noc2=O)cc1 [Example 9] ; chromatographic logP = 3.89

The compound listed as COc1ccc(Oc2noc(=O)n2S(=O)(=O)c2ccc(C)cc2)cc1 [Example 3] shows chromatographic logP equal to 3.34

For this compound ( CCN(CC)S(=O)(=O)n1c(Oc2ccc(Cl)cc2Cl)noc1=O [Example 63] ), measured chromatographic logP is 3.88

# chromatographic logP (compound: CCN(C)S(=O)(=O)n1c(Oc2cc(C)ccc2C)noc1=O [Example 64] ) is 3.42

Lab book: chromatographic logP of CCN(CC)S(=O)(=O)n1c(Oc2ccc(OC(F)(F)F)cc2)noc1=O [Example 62] noted as 3.82

CN(C)S(=O)(=O)n1c(Oc2ccc(Cl)cc2Cl)noc1=O [Example 51] has a reported chromatographic logP of 3.29

Given item COc1ccccc1Oc1noc(=O)n1S(=O)(=O)N(C)C [Example 23] , the value recorded as its chromatographic logP is 2.49
